- Target Of Assay: GPR139 (Homo sapiens)
- Sequence (Q6DWJ6 whole entry): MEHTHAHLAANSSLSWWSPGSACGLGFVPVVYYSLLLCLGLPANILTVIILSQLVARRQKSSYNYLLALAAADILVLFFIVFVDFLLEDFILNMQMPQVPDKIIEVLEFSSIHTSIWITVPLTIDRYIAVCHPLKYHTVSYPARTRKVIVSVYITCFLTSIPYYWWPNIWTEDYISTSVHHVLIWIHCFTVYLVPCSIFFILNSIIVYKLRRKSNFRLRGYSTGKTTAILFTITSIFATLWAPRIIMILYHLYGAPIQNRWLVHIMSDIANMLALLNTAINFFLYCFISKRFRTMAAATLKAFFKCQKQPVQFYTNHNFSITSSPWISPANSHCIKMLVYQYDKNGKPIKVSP
- Method Notes: Ca2+ mobilization assay, agonist mode, stable GPR139-CHOk1 cell line
- Type: cell-based
- Measurement Setup: Supplementary Table 7; normalized to Lundbeck Cmp 1a; read-out: Emax (%), Ca2+ mobilization
Please provide measured Emax for the entries that follow.
Answers are plain numbers, in %.

CC(NC(=O)CNC(=O)c1cccc(Cl)c1)c1ccccc1 (stereo not shown) [JNJ-63533054, reference compound]; 119
Cc1cscc1-c1nc(CC(=O)N[C@H](C)c2ccccc2)no1 [1.1(R)]; 112
C[C@@H](NC(=O)CNC(=O)c1cccc(Cl)c1)c1ccccc1 [JNJ(R), reference compound]; 99

Note: attention shifts to another entry.
Fill blank: measured Emax of the compound Cc1cscc1-c1nc(CC(=O)N[C@@H](C)c2ccccc2)no1 [1.1(S)] is ____.
121
